test system: Human papillomavirus type 1a protein E7 (residues 44-93); test: HPV1a E7 fragment binders on microarrays, primary screen, biochemical, small-molecule microarray, residues 44-93, 635 nm fluorescence (AID 1108); details: small-molecule microarray binding, fluorescence 635 nm; higher = more signal;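 further: E7 fragment applied at 1 µg/mL in TBST for 1 h at 4 C; score combines spot fluorescence with its signal to noise ratio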
# composite z-score >= -0.5 gives Satisfied, anything below gives Not satisfied

Known results for molecules:
O=C1C[C@@H](O)[C@@H](O)[C@@H]2[C@@H]3C(=O)N(c4cccc(Oc5ccccc5)c4)C(=O)[C@@H]3CC[C@H]12	Satisfied
Cc1ccc(S(=O)(=O)n2c3ccccc3c3nnc(C(=O)c4ccccc4)nc32)cc1	Satisfied
C[C@@H](c1ccccc1)N1C(=O)[C@H]2[C@H]3[C@H](O)[C@H](O)CC(=O)[C@H]3CC[C@H]2C1=O	Satisfied
COc1cccc([C@H]2Oc3ccc(OC)cc3C(=NOC[C@@H](O)COCc3ccco3)[C@@H]2O)c1	Not satisfied
C[C@@H]1CC[C@H]2C(=O)O[C@@H](Cc3ccccc3)CN2[C@H]1c1ccc(Br)cc1	Satisfied

Query string: Does CCCNC(=O)OC[C@H]1O[C@H](CCON=C(C)CCC(=O)OC[C@H]2O[C@H](c3ccccc3)C=C[C@@H]2Oc2ccc(OC)cc2)C=C[C@@H]1Oc1ccc(OC)cc1 have a reported composite z-score of at least -0.5?
Result string: Not satisfied

Query string: Is it the case that CO[C@@H]1COC(=O)[C@@H](C)COC(=O)[C@@H](C)NC(=O)CC=C[C@@H]1C has composite z-score reaching or exceeding -0.5?
Result string: Not satisfied

Query string: Reported composite z-score reaches at least -0.5 for C#CCCCON=C1C[C@@H](O)[C@@H](O)[C@@H]2[C@@H]3C(=O)N(CC)C(=O)[C@@H]3CC[C@@H]12 ?
Result string: Satisfied

Query string: Check this molecule for composite z-score at or above -0.5: COc1cccc([C@H]2Oc3ccc(OC)cc3C(=NOC[C@@H](O)[C@H]3O[C@@H]4OC(C)(C)O[C@@H]4[C@H]3O)[C@@H]2O)c1
Result string: Satisfied

Query string: Is composite z-score at least -0.5? Consider CC(C)CON=C1C[C@@H](O)[C@@H](O)[C@@H]2[C@@H]3C(=O)N(C[C@@H]4CCCO4)C(=O)[C@@H]3CC[C@@H]12
Result string: Satisfied

Query string: State whether the measured composite z-score reaches -0.5, counting equality as reaching it, for CO[C@@H]1COC(=O)[C@H](CCSC)NC(=O)CC=C[C@@H](C)COC(=O)CCC[C@H]1C
Result string: Not satisfied

Query string: Test whether the molecule CCOC(=O)[C@H](CC(C)C)NC(=O)CCC1CC(OC(=O)NCc2cccc3ccccc23)CC2(CCCC(COC(=O)NCCCN3CCCC3=O)O2)O1 (stereo not given in full) records composite z-score of -0.5 or higher.
Result string: Satisfied

###

assay: osmotic lysis modulators in infected erythrocytes, primary screen, PSAC antagonist project, cell-based, P. falciparum Indochina, OD700, 3 h (AID 1156); conditions: higher = more signal, called active from +8 up or from −8 down
measurementName: z-score
Give bare numbers.

Field: example entries. Status: answers known.
O=C1CCCC=C1C(CCc1ccccc1)OC(=O)c1ccc(Br)cc1 (stereo not drawn)	-0.295
CC(C)=CCCC(C)=CCON=C1C[C@@H](O)[C@@H](O)[C@@H]2[C@@H]3C(=O)N(Cc4ccccc4)C(=O)[C@@H]3CC[C@@H]12	0.0336
CCCCC#C[C@@H]1C=C[C@H](OC(C)=O)[C@@H](COC(C)=O)O1	-0.89
O=C1[C@H]2[C@H]3[C@H](O)[C@H](O)CC(=NOCc4ccccc4)[C@@H]3CC[C@H]2C(=O)N1C[C@@H]1CCCO1	-0.335
CO[C@@H]1C=CCC(=O)N2CCC[C@H]2C(=O)OC[C@@H](C)C(=O)OC[C@H]1C	0.335

Each molecule below has a reported value. Please supply its z-score.
1. CC(C)CON=C1C[C@@H](O)[C@@H](O)[C@@H]2[C@@H]3C(=O)N(C(C)(C)C)C(=O)[C@@H]3CC[C@H]12
2. CC(C)=CCCC(C)=CCON=C1C[C@@H](O)[C@@H](O)[C@@H]2[C@@H]3C(=O)N(C(C)(C)C)C(=O)[C@@H]3CC[C@@H]12
3. CC(C)=NOC[C@@H](C)[C@H](OCc1ccccc1)C(C)C

Result string:
-0.814
0.916
0.795

Recorded values, source PubChem BioAssay.
